Where do these numbers come from? They come from patent US20090280138A1.

target: T1, MHC class I molecule HLA-A*0201 (iTopia plate-bound monomer) (biotin (bound to streptavidin-coated plate)); assay: iTopia off-rate assay, 37 C; fit R^2 0.89
T1 construct: also called A2
parameterMeasured: t½ half life (h)
Respond with the bare value in h.

The recorded t½ half life for LPSLRQLDL (also called Peptide No 71) [5T4 9-mer peptide 71 LPSLRQLDL] is 1.4

The recorded t½ half life for TLAELQGLP [5T4 9-mer peptide 139 TLAELQGLP] is 0.7

The recorded t½ half life for AVSAQPPLP (also called Peptide No 26) [5T4 9-mer peptide 26 AVSAQPPLP] is 1.7

The recorded t½ half life for CVNRNLTEV (also called Peptide No 39) [5T4 9-mer peptide 39 CVNRNLTEV] is 1.3
